- Test system: human Factor 7 mRNA
- measurement protocol: Antisense inhibition of human Factor 7 mRNA in HepB3 cells, 50 nM antisense oligonucleotide, lipofectin
- Assay type: cell-based
- condition summary: lipofectin, 50 nM antisense oligonucleotide, approximately 24 hours, Factor 7 mRNA by real-time RT-PCR (RTS 2927), relative to untreated control
Strand notation (5' to 3'): a small letter for the sugar, then the base; units joined by * are phosphorothioate-linked, units joined directly phosphodiester-linked; [ ] holds rarer units or linkages, { } end groups; capitals alone tell only the bases. e = 2'-O-(2-methoxyethyl) (MOE); [5mC] = 5-methylcytosine; d = 2'-deoxy (DNA)
metric name: % Inhibition (%)
Report the figure in % without appending any unit label.

Answered examples (3):
substance: 416523 (antisense eT*e[5mC]*eT*e[5mC]*eG*dA*dG*dG*dG*d[5mC]*dT*dG*dA*dG*dA*eA*eT*eT*eG*e[5mC]) [compound 416523]
scale unit: %
measured number: 18
//
substance: 416546 (antisense e[5mC]*e[5mC]*eA*eG*eG*d[5mC]*dT*dG*dG*dT*dT*dT*dG*dG*dA*eG*eA*eA*eA*e[5mC]) [compound 416546]
scale unit: %
measured number: 21
//
substance: 416481 (antisense eA*eG*eA*eT*eG*dA*dT*dA*dA*dT*dG*dG*dA*dT*dA*eA*eG*eA*eA*e[5mC]) [compound 416481]
scale unit: %
measured number: 15

Kindly review the next substance as well.
Challenge: For human Factor 7 mRNA, provide % Inhibition of 416456 (antisense e[5mC]*eT*eG*e[5mC]*eG*d[5mC]*d[5mC]*dA*d[5mC]*d[5mC]*d[5mC]*dG*d[5mC]*d[5mC]*dG*eG*e[5mC]*eT*e[5mC]*eT) [compound 416456] please.
Response given: 58

This collection of values is drawn from patent US9029337B2.
